Test system: U937 cell line
Test: Western blot of acetylated histone H3, H4, p21 and acetylated tubulin in U937
Type: cell-based, Human
Details: U937, 1 µM, after 24h
PARAMETER_MEASURED: acetylated tubulin level, 24h

Illustrative cases are given below, each with its answer.
>>> experimental_value("COc1ccccc1NC(=O)N[C@H](C(=O)Nc1ccc(C(=O)NO)cc1)c1ccccc1 [Compound D18]")
"reduced"
>>> experimental_value("O=C(NO)c1ccc(NC(=O)[C@@H](NC(=O)c2cccc(Br)c2)c2ccccc2)cc1 [Compound D13]")
"still significant"
>>> experimental_value("O=C(NO)c1ccc(NC(=O)[C@@H](NC(=O)c2ccc3ccccc3c2)c2ccccc2)cc1 [Compound D3]")
"still significant"
>>> experimental_value("CN(C)c1cccc2c(S(=O)(=O)N[C@H](C(=O)Nc3ccc(C(=O)NO)cc3)c3ccccc3)cccc12 [Compound D17]")
"reduced"

Turning now to a further molecule:
For O=C(NO)c1ccc(NC(=O)[C@@H](NS(=O)(=O)c2cccc3ccccc23)c2ccccc2)cc1 [Compound D5] , write its acetylated tubulin level, 24h.
still significant

----------
Items are presented alongside their recorded pIC50.
Tested on: K562 cells
Experiment: MTT anti-proliferation assay, K562
Assay type: cell-based
Conditions: Homo sapiens, K562, 48 h, read-out: IC50 tumor cell growth inhibition K562
Please treat pIC50 as minus the base-10 logarithm of the molar concentration.

See these solved cases before continuing.
>>> experimental_value("O=C(NO)c1ccc(NC(=O)[C@@H](NS(=O)(=O)c2cccc3ccccc23)c2ccccc2)cc1")
6.03
>>> experimental_value("O=C(CCCCCCC(=O)Nc1ccccc1)NO [SAHA, Suberoyl anilide hydroxamic acid, reference compound]")
5.73
>>> experimental_value("COc1ccccc1NC(=O)N[C@H](C(=O)Nc1ccc(C(=O)NO)cc1)c1ccccc1")
5.81
>>> experimental_value("O=C(NO)c1ccc(NC(=O)[C@@H](NC(=O)c2ccc(F)cc2)c2ccccc2)cc1")
5.80
>>> experimental_value("COc1ccc(C(=O)N[C@H](C(=O)Nc2ccc(C(=O)NO)cc2)c2ccccc2)cc1")
5.71

Please look at this compound and report its pIC50: `CN(C)c1cccc2c(S(=O)(=O)N[C@H](C(=O)Nc3ccc(C(=O)NO)cc3)c3ccccc3)cccc12`
6.15

Supply pIC50 value. Item: `O=C(NO)c1ccc(NC(=O)[C@@H](NC(=O)c2ccccc2)c2ccccc2)cc1`
5.83
